Cited source: patent US9700543B2

target: UniProt:P43220; assay: EC20 GLP-1(9-36) PAM cAMP assay: dose response of compound in the presence of fixed concentration of GLP-1(9-36); settings: compound dose response with fixed GLP-1(9-36); GLP-1R CRE-bla CHO-K1 cells, cAMP
Sequence (P43220 24-463): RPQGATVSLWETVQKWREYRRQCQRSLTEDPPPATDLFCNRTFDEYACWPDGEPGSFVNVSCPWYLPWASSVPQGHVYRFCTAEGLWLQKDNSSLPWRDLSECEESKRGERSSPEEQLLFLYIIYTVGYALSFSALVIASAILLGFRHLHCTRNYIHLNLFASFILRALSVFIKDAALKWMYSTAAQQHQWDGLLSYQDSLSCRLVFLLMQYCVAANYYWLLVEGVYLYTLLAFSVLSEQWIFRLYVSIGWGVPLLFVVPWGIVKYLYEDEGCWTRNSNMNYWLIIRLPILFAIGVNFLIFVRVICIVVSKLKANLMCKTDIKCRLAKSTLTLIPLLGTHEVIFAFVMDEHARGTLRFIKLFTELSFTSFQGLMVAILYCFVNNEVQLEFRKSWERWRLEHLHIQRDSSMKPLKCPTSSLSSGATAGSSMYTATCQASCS
Sequence (P01275 100-127 partner limits assumed): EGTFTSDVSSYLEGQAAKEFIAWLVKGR
pEC50: −log10 of the molar value.
Decision: pEC50 >= 6 yields fulfilled, all other cases yield not fulfilled.

Here are 5 compounds together with their reported answers.
In [3]: df
Out[3]:
                                   compound  discrete_label
0  COc1ccc(CC(=O)Nc2ccc(C(=O)N(CC(=O)O)Cc3ccc(-c4noc(-c5ccc(-c6ccc(C)cc6)cc5)n4)cc3)cc2)c(C(F)(F)F)c1 [Compound 354]       fulfilled
1  COc1ccc(CC(=O)Nc2ccc(C(=O)N(CC(=O)O)Cc3ccc(-c4nc(-c5ccc(-c6ccc(C)cc6)cc5)no4)cc3)cc2)c(C(F)(F)F)c1 [Compound 362]       fulfilled
2  COc1ccc(CC(=O)Nc2ccc(C(=O)N(CC(=O)O)Cc3ccc(OC(=O)c4ccc(OCCC(C)C)cc4)cc3)cc2)cc1 [Compound 46]   not fulfilled
3  COc1ccc(CC(=O)Nc2ccc(C(=O)N(CC(=O)O)Cc3ccc(OC(=O)c4ccc(-c5ccc(C)cc5)cc4)cc3)c(OC)c2)c(C(F)(F)F)c1 [Compound 314]       fulfilled
4  COc1ccc(CC(=O)Nc2ccc(C(=O)N(CC(=O)O)Cc3ccc(-c4nc(-c5ccc(-c6ccc(C)cc6)cc5)co4)cc3)cc2)c(C(F)(F)F)c1 [Compound 360]       fulfilled

Ask: Reported pEC50 reaches at least 6 for CCCCCCCCc1ccc(C(=O)Oc2ccc(CN(CC(=O)O)C(=O)c3ccc(NC(=O)Cc4ccc(OC)cc4)cc3)cc2)cc1 [Compound 40] ?
Result: not fulfilled

Ask: Given COc1ccc(CC(=O)Nc2ccc(C(=O)N(CC(=O)O)Cc3ccc(-c4noc(-c5ccc(-c6ccc(C)cc6)cc5)n4)cc3)c(F)c2)c(C(F)(F)F)c1 [Compound 496] , state whether its pEC50 is at least 6.
Result: fulfilled

Ask: Determine whether measured pEC50 meets or exceeds 6 for COc1ccc(CC(=O)Nc2ccc(C(=O)N(CC(=O)O)Cc3ccc(-c4coc(-c5ccc(-c6ccc(C)cc6)cc5)n4)cc3)cc2)c(C(F)(F)F)c1 [Compound 364]
Result: fulfilled

Ask: Is pEC50 at least 6? Consider COc1ccc(F)c(CC(=O)Nc2ccc(C(=O)N(CC(=O)O)Cc3ccc(-c4noc(-c5ccc(-c6ccc(C)cc6)cc5)n4)cc3)cc2)c1F [Compound 441]
Result: fulfilled
